- Test system: Fibroblast
- Procedure details: Multiplex assay against human fibroblast
- Type: toxicity, cell-based
- Condition: 24 h, 10 µM, compound concentration 10 uM, replicate 1
Reported property: Population Mitochondria Different-Phenotype (%)
Use % as the unit, but write only the number.

Please review the entries below; each comes with its answer.
CN1CCN(CCOc2cc(OC3CCOCC3)c3c(Nc4c(Cl)ccc5c4OCO5)ncnc3c2)CC1: 22
O=C1NCN(c2ccccc2)C12CCN(CCCOc1ccc(F)cc1)CC2 [SPIRAMIDE]: 44
CN1CCC[C@@H]1CCO[C@](C)(c1ccccc1)c1ccc(Cl)cc1.O=C(O)/C=C/C(=O)O [CLEMASTINE FUMARATE]: 76
C[C@@H](NCCCc1cccc(C(F)(F)F)c1)c1cccc2ccccc12.Cl [CINACALCET HYDROCHLORIDE]: 71
Cl.N#Cc1ccc2[nH]cc(CCCCN3CCN(c4ccc5oc(C(N)=O)cc5c4)CC3)c2c1 [VILAZODONE HYDROCHLORIDE]: 20

Supply Population Mitochondria Different-Phenotype (%) value. Item: CN(C)C(=O)/C(C#N)=C/c1ccc(-c2nc3cnc4[nH]ccc4c3n2C2CCCCC2)o1
18

Fill in Population Mitochondria Different-Phenotype (%) for record COc1cc(-n2cnc3cc(-c4ccc(Cl)cc4)sc3c2=O)ccc1OCCN1CCCC1
43

For the compound CNc1nc(NCc2ccc(NS(C)(=O)=O)cc2Cl)cc(-c2ccccn2)n1 , give its measured Population Mitochondria Different-Phenotype (%) value.
18

Recall and state the measured Population Mitochondria Different-Phenotype (%) for Cc1sc2c(c1C)C(c1ccc(Cl)cc1)=N[C@@H](CC(=O)OC(C)(C)C)c1nnc(C)n1-2 .
6

For CN1CCCC(n2nc(Cc3ccc(Cl)cc3)c3ccccc3c2=O)CC1.Cl (configuration not stated) [AZELASTINE HYDROCHLORIDE] , write its Population Mitochondria Different-Phenotype (%).
62

Give me measured Population Mitochondria Different-Phenotype (%), please, for this compound: Cc1nc(-c2cn3c(n2)-c2ccc(-c4cnn(C(C)(C)C(N)=O)c4)cc2OCC3)n(C(C)C)n1
2

Specify reported Population Mitochondria Different-Phenotype (%) for the compound shown: CN(C)C(=O)N[C@H]1CC[C@H](CCN2CCN(c3cccc(Cl)c3Cl)CC2)CC1.Cl [CARIPRAZINE HYDROCHLORIDE]
36

Identify measured Population Mitochondria Different-Phenotype (%) corresponding to Cc1csc2c(N[C@@H](C)CN3CCN(S(=O)(=O)c4ccc(Cl)c(Cl)c4)CC3)ncnc12
71

Please look at this compound and report its Population Mitochondria Different-Phenotype (%): CC[C@H](C)C(=O)O[C@H]1C[C@@H](C)C=C2C=C[C@H](C)[C@H](CC[C@@H]3C[C@@H](O)CC(=O)O3)[C@H]21
10

Please indicate Population Mitochondria Different-Phenotype (%) recorded for CNCc1ccc(-c2cc(-c3nc(-c4ccc(S(=O)(=O)C(C)C)cc4)cnc3N)on2)cc1
0

Please give the documented Population Mitochondria Different-Phenotype (%) of CN1CCN(c2ccc(OC(F)(F)F)c(Nc3ncc4c(n3)-c3c(c(C(N)=O)nn3CCO)CC4)c2)CC1
0

Give the reported value of Population Mitochondria Different-Phenotype (%) for this record: CN1C(=O)c2sccc2N(C)c2nc(Nc3ccc(S(N)(=O)=O)cc3)ncc21
2
